The reported numbers originate from PubChem BioAssay.

Assay: small-molecule microarray binders of probe aWnt5a, primary screen, biochemical, biotinylated probe, 635/667 nm fluorescence (AID 1113);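 note: score merges 667 nm fluorescence intensity with signal-to-noise per printed feature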
Settings: higher = more signal
Range-based classes on measured composite z-score: low bin = under -0.1, mid bin = from -0.1 up to -0.05, high bin = -0.05 and over

[[record]]
molecule = "COC(=O)[C@@]1(Cc2ccc(OC)cc2)[C@H]2c3cc(C(=O)N4CCCC4)n(Cc4ccc(OC)c(OC)c4)c3C[C@H]2CN1C(=O)c1ccccc1"
class_label = "low bin"

[[record]]
molecule = "O=C1O[C@H](c2ccccc2)[C@H](c2ccccc2)N2[C@H]1[C@@H](C(=O)NC[C@H](O)c1ccccc1)[C@]1(C(=O)Nc3ccccc31)[C@H]2c1ccc(OCCO)cc1"
class_label = "mid bin"

[[record]]
molecule = "CCCC[C@@H]1C[C@H]1[C@@H](NC(=O)c1ccco1)c1ccc(C(=O)OC)cc1"
class_label = "high bin"

[[record]]
molecule = "CN(C)CCCNC(=O)[C@@]1(c2ccc([N+](=O)[O-])cc2)CC(=O)N(C2CCCCC2)[C@@H]1c1ccc(CO)cc1I"
class_label = "mid bin"

[[record]]
molecule = "[N-]=[N+]=NCc1ccccc1[C@@H]1OC(c2ccc(OCCCO)cc2)=N[C@]1(Cc1ccccc1N=[N+]=[N-])C(=O)N1CCOCC1"
class_label = "high bin"

[[record]]
molecule = "COc1ccc(C(=O)O[C@H]2CC[C@]3(C)C4=C(CCC3C2(C)C)[C@]2(C)CC[C@H]([C@H](C)CCCC(C)C)[C@@]2(C)CC4)cc1 (stereo partly specified)"
class_label = "mid bin"

[[record]]
molecule = "CN(C)CCCNC(=O)[C@@]1(c2ccc([N+](=O)[O-])cc2)CC(=O)N(C2CCCCC2)[C@@H]1c1ccc(CO)cc1"
class_label = "low bin"

[[record]]
molecule = "COc1ccc(C(=O)Nc2ccc(CN3C(=O)[C@@]4(O[C@@H](CC(=O)N5CCC[C@H]5CO)[C@H]([Si](C)(C)c5ccc(OC)cc5)[C@H]4C)c4ccccc43)cc2)cc1"
class_label = "mid bin"

[[record]]
molecule = "CN(C)CCCC[C@@H]1NC(=O)[C@H]2C[C@@H](C(=O)NCCCCCNC(=O)CS)[C@@H](c3cccc(OCCO)c3)N2C1=O"
class_label = "low bin"

[[record]]
molecule = "[N-]=[N+]=NCc1ccccc1C[C@]1(C(=O)N2CCOCC2)N=C(c2ccc(OCCCO)cc2)O[C@H]1c1ccccc1N=[N+]=[N-]"
class_label = "high bin"

[[record]]
molecule = "CN1C(=O)[C@]2(Cc3ccccc3)N=C(c3ccc(OCCCO)cc3)O[C@@H]2c2ccccc21"
class_label = "high bin"

[[record]]
molecule = "[N-]=[N+]=NCc1ccccc1[C@H]1OC(c2ccc(OCCCO)cc2)=N[C@@]1(Cc1ccccc1)C(=O)NCc1ccccc1"
class_label = "high bin"

[[record]]
molecule = "CC1CC/C=C\\[C@H]2OC34C=CCN(Cn5nnc6ccccc65)C(=O)[C@H]3N(C(CO)C(C)C)C(=O)[C@@H]4C2C(=O)O1 (stereo partly specified)"
class_label = "low bin"

[[record]]
molecule = "C=C(/C(=C/C[C@@H](OC(C)=O)c1ccc(OCCO)cc1)c1cnc2ccccc2c1)C(C)C"
class_label = "mid bin"

[[record]]
molecule = "CCCN1C(=O)[C@]2(CCS(=O)(=O)c3ccccc3)N=C(c3ccc(OCCCO)cc3)O[C@@H]2c2ccccc21"
class_label = "mid bin"

[[record]]
molecule = "C=C/C=C/[C@H]1C(=C)CN([C@@H](Cc2ccccc2)C(=O)OC)[C@@H]1[C@H](O)Cc1ccccc1"
class_label = "low bin"

[[record]]
molecule = "COCCOC(=O)N1C(=O)[C@@]2(c3cc(C#CCNC(N)=O)ccc31)[C@H](C(=O)NC[C@H](O)c1ccccc1)[C@H]1C(=O)O[C@H](c3ccccc3)[C@H](c3ccccc3)N1[C@@H]2c1ccccc1OCCO"
class_label = "high bin"

[[record]]
molecule = "C#CCN(CC1=CCCCC1)[C@H](c1ccccc1Br)[C@@H](O)Cc1ccccc1"
class_label = "low bin"

[[record]]
molecule = "Cc1ccc(S[C@]2(C(=O)NC(C)C)CC(=O)N(Cc3ccccc3Cl)[C@@H]2c2ccc(CO)cc2I)cc1"
class_label = "low bin"

[[record]]
molecule = "COc1cc2c(cc1OC)CN(C(=O)[C@H]1[C@@H]3C(=O)O[C@@H](c4ccccc4)[C@@H](c4ccccc4)N3[C@@H](c3ccc(O)cc3)[C@]13C(=O)Nc1ccc(C#CCNC(N)=O)cc13)CC2"
class_label = "high bin"

[[record]]
molecule = "C#CCNC(=O)[C@H](Cc1ccccc1)NC(=O)CCC(=O)O"
class_label = "low bin"

[[record]]
molecule = "Cc1ccc(C(C)CC(O)C2C=CC3C(=O)N(c4ccccc4)C(=O)C3N2Nc2ccc([N+](=O)[O-])cc2)o1 (stereo unspecified)"
class_label = "mid bin"

[[record]]
molecule = "[N-]=[N+]=NCc1ccccc1[C@@H]1OC(c2ccc(OCCCO)cc2)=N[C@]1(CCS(=O)(=O)c1ccccc1)C(=O)NCc1ccccc1"
class_label = "high bin"


* * *

Experiment: small-molecule microarray binders of probe aCHRDL2, primary screen, biochemical, biotinylated probe, 635/667 nm fluorescence (AID 1100)
Conditions: higher = more signal
endpoint.label: composite z-score

[[record]]
molecule = "C=C(CCCC)C(=O)CC[C@H](OC(C)=O)c1cccc(OCCO)c1"
obs_value = -0.193

[[record]]
molecule = "CC(C)(C)OC(=O)CC[C@]12N=C(c3ccc(OCCCO)cc3)O[C@H]1c1ccccc1N(CCS(=O)(=O)c1ccccc1)C2=O"
obs_value = 0.52

[[record]]
molecule = "CN1C(=O)C2C=CC(C(O)C3CC=CCC3)N(NC(=O)OC(C)(C)C)C2C1=O (centres undefined)"
obs_value = 0.16

[[record]]
molecule = "COc1ccc(CCNC(=O)[C@@]2(C)c3ccccc3C(=O)N(Cc3cc(F)cc(C(F)(F)F)c3)[C@H]2c2ccc(CO)cc2)cc1"
obs_value = 0.875


* * *

Assay: small-molecule microarray binders of probe aEGFR, primary screen, biochemical, biotinylated probe, 635/667 nm fluorescence (AID 1097);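 note: probe is a biotinylated anti-EGFR antibody binding compounds printed on slides; score combines fluorescence near 667 nm and signal to noise of each spot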
Settings: higher = more signal
// label = rule met if composite z-score is not less than -0.1, otherwise rule not met

[[record]]
compound = "CC(C)(C)OC(=O)CC[C@]1(C(=O)NCC(O)CO)COC(c2ccc(OCCCO)cc2)=N1 (some centres not stated)"
class_label = "rule met"

[[record]]
compound = "C=C(CCCC)C(=O)CC[C@H](OC(C)=O)c1cccc(OCCO)c1"
class_label = "rule not met"

[[record]]
compound = "O=C(NCc1ccccc1)[C@@H]1c2ccccc2C(=O)N(CC23CC4CC(CC(C4)C2)C3)[C@H]1c1ccc(CO)cc1"
class_label = "rule not met"

[[record]]
compound = "CN1C(=O)C2C=CC(C(O)c3ccc(I)cc3)N(N3CCCCC3)C2C1=O (configuration not stated)"
class_label = "rule met"

[[record]]
compound = "COCCOC(=O)N1C(=O)[C@@]2(c3cc(C#CCCO)ccc31)[C@H](C(=O)Nc1nc3ccccc3s1)[C@H]1C(=O)O[C@H](c3ccccc3)[C@H](c3ccccc3)N1[C@@H]2c1ccc(OCCO)cc1"
class_label = "rule met"

[[record]]
compound = "CCOC(=O)C[C@H]1[C@H](OC(=O)Cc2ccc3c(c2)OCO3)[C@@H](NC(=O)c2ccc3ccccc3c2)c2cc(OCCCO)ccc2N1C(=O)c1ccccc1"
class_label = "rule met"


* * *

Target: Neurogenic locus notch homolog protein 2 (Homo sapiens)
Assay: Notch2 binders on small-molecule microarrays, primary screen, biochemical, small-molecule microarray, 635 nm fluorescence, stem cell growth factors (AID 1073)
Details: Notch2 binding, higher = more signal
Outcome: Condition met for composite z-score of at least 1; Condition not met for anything lower.

[[record]]
sample_smiles = "CC(C)(C)OC(=O)CC[C@@]1(C(N)=O)N=C(c2ccc(OCCCO)cc2)O[C@@H]1c1ccccc1"
class_label = "Condition met"

[[record]]
sample_smiles = "C=CC[C@]1(C(=O)N2CCCCC2)N=C(c2ccc(OCCCO)cc2)O[C@H]1c1ccccc1"
class_label = "Condition not met"

[[record]]
sample_smiles = "[N-]=[N+]=NCc1ccccc1[C@@H]1OC(c2ccc(OCCCO)cc2)=N[C@]1(Cc1ccccc1N=[N+]=[N-])C(=O)N1CCOCC1"
class_label = "Condition met"

[[record]]
sample_smiles = "C#CCNC(=O)[C@H](Cc1ccccc1)NC(=O)CCC(=O)O"
class_label = "Condition not met"

[[record]]
sample_smiles = "[N-]=[N+]=Nc1ccccc1C[C@@]1(C(=O)NCCN2CCOCC2)N=C(c2ccc(OCCCO)cc2)O[C@@H]1c1ccccc1"
class_label = "Condition met"

[[record]]
sample_smiles = "[N-]=[N+]=NCc1ccccc1[C@@H]1OC(c2ccc(OCCCO)cc2)=N[C@]1(CCS(=O)(=O)c1ccccc1)C(=O)NCc1ccccc1"
class_label = "Condition met"

[[record]]
sample_smiles = "O=C1O[C@@H](c2ccccc2)[C@@H](c2ccccc2)N2[C@@H](c3ccccc3OCCO)[C@]3(C(=O)Nc4ccc(C#CC5=CCCCC5)cc43)[C@@H](C(=O)Nc3nc4ccccc4s3)[C@H]12"
class_label = "Condition met"

